- Tested on: 786-0
- experiment: Cytotoxicity against human 786-0 cells assessed as growth inhibition after 48 hrs by sulforhodamine B assay
- Format: functional
- details: 786-0, 48 h
measured_property: LC50 (µM)
Entry rule: numbers only, all in µM.

Examples with answers:
COc1cc(-c2cc(/C=C/C(=O)c3ccc(N)cc3)[nH]n2)cc(OC)c1OC	27.6
COc1cc(C(=O)/C=C/c2cc(-c3cc(OC)c(OC)c(OC)c3)n[nH]2)cc(OC)c1OC	6.76
COc1ccc(-c2cc(/C=C/C(=O)c3ccc(OC)c(OC)c3)[nH]n2)cc1	5.96

Next item in the queue.
## Input Hello, please tell me recorded LC50 for this one: COc1ccc(-c2cc(/C=C/C(=O)c3ccc(N)cc3)[nH]n2)cc1OC
## Output 10.8
